tested on: Normal Kunming (KM) mice; experiment: multiple OGTT (mOGTT): hypoglycemic duration after a single administration; assay type: in vivo; details: single injection at the same dose (1.126 nmol), subcutaneous
property_name: Hypoglycemic duration
# answer = value followed by unit

Data request: GET /values?readout=Hypoglycemic duration&item= 2G4 series 32: disulfide-linked homodimer of monomer SEQ ID NO: 32 (HAEGTFTSDVSCYLEGQAAXEFIAWLVRGRG; not fully specified; disulfide-linked homodimer; Sequence is synthesized; (20)..(20) Xaa is 26Lys[N-e-(N-a-oleoyl-L-g-glutamyl)]; (31)..(31) C-terminal)
Data returned: 13 days

# ---- query substance ----
Data request: GET /values?readout=Hypoglycemic duration&item= 2G3 series 21: disulfide-linked homodimer of monomer SEQ ID NO: 21 (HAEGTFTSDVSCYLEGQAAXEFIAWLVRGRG; disulfide-linked homodimer; Sequence is synthesized; (20)..(20) Xaa is 26Lys[N-e-(N-a-oleoyl-L-g-glutamyl)]; (31)..(31) C-terminal)
Data returned: 14 days

---

system: Normal Kunming (KM) mice; assay: multiple OGTT (mOGTT): hypoglycemic duration after a single administration; format: in vivo; settings: monomeric peptides, single injection at the same dose (1.126 nmol), subcutaneous
I'd be grateful if you could share measured Hypoglycemic for these entries.
One number for each entry, in days.

Record excerpt, results attached:
Data request: GET /values?readout=Hypoglycemic&item= His-βAib-Glu-Gly-Thr-Phe-Thr-Ser-Asp-Val-Cys-Ser-Tyr-Leu-Glu-Gly-Gln-Ala-Ala-Lys[N-ϵ-(N-α-oleoyl)]-Glu-Phe-Ile-Ala-Trp-Leu-Val-Arg-Gly-Arg-Gly-NH2 (HXEGTFTSDVCSYLEGQAAXEFIAWLVRGRG; βAib; oleoyl on Lys; C-terminal amide; Sequence is synthesized; (2)..(2) Xaa is bAib; (20)..(20) Xaa is 26Lys[N-e-(N-a-oleoyl-L-g-glutamyl)]; (31)..(31) N-terminal) [G4 series 30]
Data returned: 6

Data request: Record: His-aAib-Glu-Gly-Thr-Phe-Thr-Cys-Asp-Val-Ser-Ser-Tyr-Leu-Glu-Gly-Gln-Ala-Ala-Lys[N-ϵ-(N-α-oleoyl-L-γ-glutamyl)]-Glu-Phe-Ile-Ala-Trp-Leu-Val-Arg-Gly-Arg-Gly-OH (HXEGTFTCDVSSYLEGQAAXEFIAWLVRGRG; Aib; oleoyl-gamma-Glu on Lys; C-terminal acid; Sequence is synthesized; (2)..(2) Xaa is aAib; (20)..(20) Xaa is 26Lys[N-e-(N-a-oleoyl-L-g-glutamyl)]; (31)..(31) C-terminal) [G8 series 63]
Data returned: 2

Data request: Record: His-βAib-Glu-Gly-Thr-Phe-Thr-Ser-Asp-Val-Ser-Cys-Tyr-Leu-Glu-Gly-Gln-Ala-Ala-Lys[N-ϵ-(N-α-oleoyl)]-Glu-Phe-Ile-Ala-Trp-Leu-Val-Arg-Gly-Arg-Gly-NH2 (HXEGTFTSDVSCYLEGQAAXEFIAWLVRGRG; not fully specified; beta-Aib; oleoyl on Lys side chain; C-terminal amide; Sequence is synthesized; (2)..(2) Xaa is bAib; (20)..(20) Xaa is 26Lys[N-e-(N-a-oleoyl-L-g-glutamyl)]; (31)..(31) N-terminal) [G4 series 38]
Data returned: 6

# ---- query substance ----
Data request: GET /values?readout=Hypoglycemic&item= His-Ala-Glu-Gly-Thr-Phe-Thr-Ser-Asp-Val-Cys-Ser-Tyr-Leu-Glu-Gly-Gln-Ala-Ala-Lys[N-ϵ-(N-α-Palmitoyl)]-Glu-Phe-Ile-Ala-Trp-Leu-Val-Arg-Gly-Arg-Gly-OH (HAEGTFTSDVCSYLEGQAAXEFIAWLVRGRG; palmitoyl on Lys; C-terminal acid; Sequence is synthesized; (20)..(20) Xaa is 26Lys[N-e-(N-a-palmitoyl-L-g-glutamyl)]; (31)..(31) C-terminal) [G4 series 24]
Data returned: 3

---

system: Normal Kunming (KM) mice; experiment: multiple OGTT (mOGTT): hypoglycemic duration after a single administration; type: in vivo; details: monomeric peptides, single injection at the same dose (1.126 nmol), subcutaneous
property_name: Hypoglycemic (days)
One number for each entry, in days.

Data request: GET /values?readout=Hypoglycemic&item= His-aAib-Glu-Gly-Thr-Phe-Thr-Ser-Asp-Val-Cys-Ser-Tyr-Leu-Glu-Gly-Gln-Ala-Ala-Lys[N-ϵ-(N-α-Palmitoyl-γ-glutamyl)]-Glu-Phe-Ile-Ala-Trp-Leu-Val-Arg-Gly-Arg-Gly-OH (HXEGTFTSDVCSYLEGQAAXEFIAWLVRGRG; αAib; palmitoyl-γ-glutamyl on Lys; C-terminal acid; Sequence is synthesized; (2)..(2) Xaa is aAib; (20)..(20) Xaa is 26Lys[N-e-(N-a-Palmitoyl-g-glutamyl)]; (31)..(31) C-terminal) [G2 series 11]
Data returned: 4

---

system: Normal Kunming (KM) mice; test: multiple OGTT (mOGTT): hypoglycemic duration after a single administration; type: in vivo; conditions: monomeric peptides, single injection at the same dose (1.126 nmol), subcutaneous
Non-standard residues stand in square brackets, D forms with d. No end group written: not given here. βAla = NCCC(=O)O
I'd be grateful if you could share measured Hypoglycemic for these entries.
# answer = value followed by unit

Record excerpt, results attached:
Data request: GET /values?readout=Hypoglycemic&item= His-Ala-Glu-Gly-Thr-Phe-Thr-Cys-Asp-Val-Ser-Ser-Tyr-Leu-Glu-Gly-Gln-Ala-Ala-Lys[N-ϵ-(N-α-Palmitoyl-L-γ-glutamyl)]-Glu-Phe-Ile-Ala-Trp-Leu-Val-Arg-Gly-Arg-Gly-NH2 (HAEGTFTCDVSSYLEGQAAXEFIAWLVRGRG; palmitoyl-gamma-Glu on Lys; C-terminal amide; Sequence is synthesized; (20)..(20) Xaa is 26Lys[N-e-(N-a-palmitoyl-L-g-glutamyl)]; (31)..(31) N-terminal) [G8 series 57]
Data returned: 2 days

Data request: Record: His-aAib-Glu-Gly-Thr-Phe-Thr-Ser-Asp-Val-Ser-Cys-Tyr-Leu-Glu-Gly-Gln-Ala-Ala-Lys[N-ϵ-(N-α-Palmitoyl)]-Glu-Phe-Ile-Ala-Trp-Leu-Val-Arg-Gly-Arg-Gly-NH2 (HXEGTFTSDVSCYLEGQAAXEFIAWLVRGRG; not fully specified; Aib; palmitoyl on Lys side chain; C-terminal amide; Sequence is synthesized; (2)..(2) Xaa is aAib; (20)..(20) Xaa is 26Lys[N-e-(N-a-palmitoyl-L-g-glutamyl)]; (31)..(31) N-terminal) [G4 series 37]
Data returned: 7 days

Data request: Record: His-Ala-Glu-Gly-Thr-Phe-Thr-Ser-Asp-Val-Ser-Cys-Tyr-Leu-Glu-Gly-Gln-Ala-Ala-Lys[N-ϵ-(N-α-oleoyl)]-Glu-Phe-Ile-Ala-Trp-Leu-Val-Arg-Gly-Arg-Gly-NH2 (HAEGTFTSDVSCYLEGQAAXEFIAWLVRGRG; not fully specified; oleoyl on Lys; C-terminal amide; Sequence is synthesized; (20)..(20) Xaa is 26Lys[N-e-(N-a-oleoyl-L-g-glutamyl)]; (31)..(31) N-terminal) [G4 series 33]
Data returned: 7 days

Would you mind listing Hypoglycemic for each of the following substances?
1. His-βAla-Glu-Gly-Thr-Phe-Thr-Ser-Asp-Val-Cys-Ser-Tyr-Leu-Glu-Gly-Gln-Ala-Ala-Lys[N-ϵ-(N-α-oleoyl-L-γ-glutamyl)]-Glu-Phe-Ile-Ala-Trp-Leu-Val-Arg-Gly-Arg-Gly-NH2 (HXEGTFTSDVCSYLEGQAAXEFIAWLVRGRG; β-amino acid; oleoyl-γ-glutamyl on Lys; C-terminal amide; Sequence is synthesized; (2)..(2) Xaa is bAla; (20)..(20) Xaa is 26Lys[N-e-(N-a-oleoyl-L-g-glutamyl)]; (31)..(31) N-terminal) [G2 series 18]
2. His-βAla-Glu-Gly-Thr-Phe-Thr-Ser-Asp-Val-Cys-Ser-Tyr-Leu-Glu-Gly-Gln-Ala-Ala-Lys-Glu-Phe-Ile-Ala-Trp-Leu-Val-Arg-βAla-Arg-NH2 (H[βAla]EGTFTSDVCSYLEGQAAKEFIAWLVR[βAla]R-NH2; not fully specified; printed as His-βAla-Glu-Gly-Thr-Phe-Thr-Ser-Asp-Val-Cys-Ser-Tyr-Leu-Glu-Gly-Gln-Ala-Ala-Lys-Glu-Phe-Ile-Ala-Trp-Leu-Val-Arg-βAla-Arg-NH2) [G2 series 19]

Data returned:
5 days
3 days

---

Test system: Normal Kunming (KM) mice
Experiment: multiple OGTT (mOGTT): hypoglycemic duration after a single administration
Type: in vivo
Conditions: monomeric peptides, single injection at the same dose (1.126 nmol), subcutaneous
Procedure: • 1. Methods: Normal Kunming (KM) mice (purchased from Guangdong Animal Center) were used for oral glucose tolerance test (OGTT) to obtain the hypoglycemic activity and durability of drug. […] The blood glucose meter and blood glucose test paper were from Bayer […]. […] Results • 2.1 single OGTTs: after a single administration, the mice were orally administered glucose once and measured the blood glucose from the tail blood at 0, 10, 20, 40, 60 and 120 min. […]
Non-standard residues stand in square brackets, D forms with d. No end group written: not given here. βAla = NCCC(=O)O
# if measured Hypoglycemic < 3 days: 1  # else: 0

Data request: Report whether reported Hypoglycemic is lower than 3 days (strictly) for His-βAla-Glu-Gly-Thr-Phe-Thr-Cys-Asp-Val-Ser-Ser-Tyr-Leu-Glu-Gly-Gln-Ala-Ala-Lys-Glu-Phe-Ile-Ala-Trp-Leu-Val-Arg-βAla-Arg-NH2 (H[βAla]EGTFTCDVSSYLEGQAAKEFIAWLVR[βAla]R-NH2; not fully specified; printed as His-βAla-Glu-Gly-Thr-Phe-Thr-Cys-Asp-Val-Ser-Ser-Tyr-Leu-Glu-Gly-Gln-Ala-Ala-Lys-Glu-Phe-Ile-Ala-Trp-Leu-Val-Arg-βAla-Arg-NH2) [G8 series 69]
Data returned: 1

Data request: Record: His-aAib-Glu-Gly-Thr-Phe-Thr-Cys-Asp-Val-Ser-Ser-Tyr-Leu-Glu-Gly-Gln-Ala-Ala-Lys[N-ϵ-(N-α-oleoyl-L-γ-glutamyl)]-Glu-Phe-Ile-Ala-Trp-Leu-Val-Arg-Gly-Arg-Gly-NH2 (HXEGTFTCDVSSYLEGQAAXEFIAWLVRGRG; Aib; oleoyl-gamma-Glu on Lys; C-terminal amide; Sequence is synthesized; (2)..(2) Xaa is aAib; (20)..(20) Xaa is 26Lys[N-e-(N-a-oleoyl-L-g-glutamyl)]; (31)..(31) N-terminal) [G8 series 62]
Data returned: 0

Data request: Record: His-βAla-Glu-Gly-Thr-Phe-Thr-Ser-Asp-Val-Ser-Cys-Tyr-Leu-Glu-Gly-Gln-Ala-Ala-Lys[N-ϵ-(N-α-oleoyl)]-Glu-Phe-Ile-Ala-Trp-Leu-Val-Arg-Gly-Arg-Gly-NH2 (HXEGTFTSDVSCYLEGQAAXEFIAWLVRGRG; beta-amino acid; oleoyl on Lys side chain; C-terminal amide; Sequence is synthesized; (2)..(2) Xaa is bAla; (20)..(20) Xaa is 26Lys[N-e-(N-a-oleoyl-L-g-glutamyl)]; (31)..(31) N-terminal) [G4 series 39]
Data returned: 0

Data request: Record: His-Ala-Glu-Gly-Thr-Phe-Thr-Ser-Asp-Val-Cys-Ser-Tyr-Leu-Glu-Gly-Gln-Ala-Ala-Lys[N-ϵ-(N-α-oleoyl)]-Glu-Phe-Ile-Ala-Trp-Leu-Val-Arg-Gly-Arg-Gly-NH2 (HAEGTFTSDVCSYLEGQAAXEFIAWLVRGRG; oleoyl on Lys; C-terminal amide; Sequence is synthesized; (20)..(20) Xaa is 26Lys[N-e-(N-a-oleoyl-L-g-glutamyl)]; (31)..(31) N-terminal) [G4 series 27]
Data returned: 0

Lab note: next substance to report on.
Data request: Report whether reported Hypoglycemic is lower than 3 days (strictly) for His-aAib-Glu-Gly-Thr-Phe-Thr-Ser-Asp-Val-Cys-Ser-Tyr-Leu-Glu-Gly-Gln-Ala-Ala-Lys[N-ϵ-(N-α-oleoyl)]-Glu-Phe-Ile-Ala-Trp-Leu-Val-Arg-Gly-Arg-Gly-NH2 (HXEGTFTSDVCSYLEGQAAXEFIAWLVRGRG; αAib; oleoyl on Lys; C-terminal amide; Sequence is synthesized; (2)..(2) Xaa is aAib; (20)..(20) Xaa is 26Lys[N-e-(N-a-oleoyl-L-g-glutamyl)]; (31)..(31) N-terminal) [G4 series 29]
Data returned: 0
